Data provenance is patent US5041567A.

Tested on: M. suipneumoniae JF 435
Assay: MIC against mycoplasma in vitro
Type: cell-based
Details: Mesomycoplasma hyopneumoniae, JF435, 144 h; M. suipneumoniae JF 435; 6 days, 37° C.; read-out: MIC
endpoint.name: MIC (µg/mL)
API: value field is a number in µg/mL; no unit string.

**Q:** So what MIC did C/C(=C\c1ncc(-c2ccc(C(=O)O)cc2)o1)C[C@@H]1OC[C@H](C[C@@H]2O[C@H]2[C@@H](C)[C@H](C)O)[C@@H](O)[C@H]1O get with M. suipneumoniae JF 435?
**A:** 5

**Q:** So what MIC did C/C(=C\c1ncc(-c2ccc(C=O)cc2)o1)C[C@@H]1OC[C@H](C[C@@H]2O[C@H]2[C@@H](C)[C@H](C)O)[C@@H](O)[C@H]1O get with M. suipneumoniae JF 435?
**A:** 0.5

**Q:** So what MIC did C/C(=C\c1ncc(-c2ccc(CO)cc2)o1)C[C@@H]1OC[C@H](C[C@@H]2O[C@H]2[C@@H](C)[C@H](C)O)[C@@H](O)[C@H]1O get with M. suipneumoniae JF 435?
**A:** 0.25

**Q:** So what MIC did C/C(=C\c1ncc(-c2ccc(C#N)cc2)o1)C[C@@H]1OC[C@H](C[C@@H]2O[C@H]2[C@@H](C)[C@H](C)O)[C@@H](O)[C@H]1O get with M. suipneumoniae JF 435?
**A:** 0.5

**Q:** So what MIC did C/C(=C\c1ncc(Cc2ccccc2)o1)C[C@@H]1OC[C@H](C[C@@H]2O[C@H]2[C@@H](C)[C@H](C)O)[C@@H](O)[C@H]1O get with M. suipneumoniae JF 435?
**A:** 10

**Q:** So what MIC did C/C(=C\c1ncc(-c2cccc([S+](C)[O-])c2)o1)C[C@@H]1OC[C@H](C[C@@H]2O[C@H]2[C@@H](C)[C@H](C)O)[C@@H](O)[C@H]1O (some centres unmarked) get with M. suipneumoniae JF 435?
**A:** 0.5
